measured on: SARS-COV2-S1 RBD (mouse IgG2Fc tag) (SARS-CoV-2, UniProt P0DTC2 319-537)
test details: column not explained; likely FACS, S1 RBD on Vero E6
Record form. Attribute: MFI Fold Decrease. Fill in for each entry.
All answers are understood in fold, so give the number only.

For this binder ( variant 6-73 (Fc fusion) VHH: EVQLVESGGGLVQPGGSLRLSCAASGHTFSGYAMGWFRQAPGKEREFVAVITREGSTYYADSVKGRFTISADNSKNTAYLQMNSLKPEDTAVYYCARLGGEGFDYWGQGTLVTVSS ), measured MFI Fold Decrease is 7.99

For this binder ( variant 6-76 (Fc fusion) VHH: EVQLVESGGGLVQPGGSLRLSCAASGLAFDFDGMGWFRQAPGKEREGVAAINSGGSTYYADSVKGRFTISADNSKNTAYLQMNSLKPEDTAVYYCARFFRAHDYWGQGTLVTVSS ), measured MFI Fold Decrease is 9.96
